MIC overview
# Tested on: Pseudomonas aeruginosa
# protocol: Antimicrobial activity against Pseudomonas aeruginosa 2742 after 20 hrs by two-fold serial dilution technique
# Format: functional
# testContext: Pseudomonas aeruginosa, 2742, 20 h

Please review the following examples before continuing.
- compound: "O=C(O)c1ccc(/C=C2\\SC(=S)N(Cc3nnc(-c4cccc(Br)c4)o3)C2=O)cc1"
  testResult: "> 128 µg/mL"
- compound: "O=C1CSC(=S)N1[C@@H](Cc1ccccc1)c1nnc(-c2cccc(Cl)c2)o1"
  testResult: "> 128 µg/mL"
- compound: "COc1c(N2CCNC(C)C2)c(F)cc2c(=O)c(C(=O)O)cn(C3CC3)c12 (stereo unspecified) [GATIFLOXACIN]"
  testResult: "1 µg/mL"
- compound: "O=C1CSC(=S)N1Cc1nnc(-c2ccccc2F)o1"
  testResult: "> 128 µg/mL"
- compound: "O=C1CSC(=S)N1[C@@H](Cc1ccccc1)c1nnc(-c2ccccc2)o1"
  testResult: "> 128 µg/mL"

According to the records, this compound Cc1ccc(-c2nnc(CN3C(=O)CSC3=S)o2)cc1 displays MIC of > 128 µg/mL

According to the records, this compound O=C1CSC(=S)N1Cc1nnc(-c2ccc(Cl)cc2)o1 displays MIC of > 128 µg/mL

According to the records, this compound Cc1cccc(-c2nnc([C@H](Cc3ccccc3)N3C(=O)/C(=C/c4ccc(C(=O)O)cc4)SC3=S)o2)c1 displays MIC of > 128 µg/mL

According to the records, this compound O=C1CSC(=S)N1Cc1nnc(-c2ccc(Br)cc2)o1 displays MIC of > 128 µg/mL

According to the records, this compound Cc1cccc(-c2nnc(CN3C(=O)/C(=C/c4ccc(C(=O)O)cc4)SC3=S)o2)c1 displays MIC of > 128 µg/mL

According to the records, this compound Cc1cccc(-c2nnc([C@H](Cc3ccccc3)N3C(=O)CSC3=S)o2)c1 displays MIC of > 128 µg/mL
